biological target: KDR (VEGFR2) (Homo sapiens); construct: purchased Invitrogen; experiment: In vitro kinase assay (Z'-LYTE), KDR (VEGFR2); type: biochemical; conditions: read-out: % of inhibition of the kinase compared to the control
Sequence (P35968 20-1356): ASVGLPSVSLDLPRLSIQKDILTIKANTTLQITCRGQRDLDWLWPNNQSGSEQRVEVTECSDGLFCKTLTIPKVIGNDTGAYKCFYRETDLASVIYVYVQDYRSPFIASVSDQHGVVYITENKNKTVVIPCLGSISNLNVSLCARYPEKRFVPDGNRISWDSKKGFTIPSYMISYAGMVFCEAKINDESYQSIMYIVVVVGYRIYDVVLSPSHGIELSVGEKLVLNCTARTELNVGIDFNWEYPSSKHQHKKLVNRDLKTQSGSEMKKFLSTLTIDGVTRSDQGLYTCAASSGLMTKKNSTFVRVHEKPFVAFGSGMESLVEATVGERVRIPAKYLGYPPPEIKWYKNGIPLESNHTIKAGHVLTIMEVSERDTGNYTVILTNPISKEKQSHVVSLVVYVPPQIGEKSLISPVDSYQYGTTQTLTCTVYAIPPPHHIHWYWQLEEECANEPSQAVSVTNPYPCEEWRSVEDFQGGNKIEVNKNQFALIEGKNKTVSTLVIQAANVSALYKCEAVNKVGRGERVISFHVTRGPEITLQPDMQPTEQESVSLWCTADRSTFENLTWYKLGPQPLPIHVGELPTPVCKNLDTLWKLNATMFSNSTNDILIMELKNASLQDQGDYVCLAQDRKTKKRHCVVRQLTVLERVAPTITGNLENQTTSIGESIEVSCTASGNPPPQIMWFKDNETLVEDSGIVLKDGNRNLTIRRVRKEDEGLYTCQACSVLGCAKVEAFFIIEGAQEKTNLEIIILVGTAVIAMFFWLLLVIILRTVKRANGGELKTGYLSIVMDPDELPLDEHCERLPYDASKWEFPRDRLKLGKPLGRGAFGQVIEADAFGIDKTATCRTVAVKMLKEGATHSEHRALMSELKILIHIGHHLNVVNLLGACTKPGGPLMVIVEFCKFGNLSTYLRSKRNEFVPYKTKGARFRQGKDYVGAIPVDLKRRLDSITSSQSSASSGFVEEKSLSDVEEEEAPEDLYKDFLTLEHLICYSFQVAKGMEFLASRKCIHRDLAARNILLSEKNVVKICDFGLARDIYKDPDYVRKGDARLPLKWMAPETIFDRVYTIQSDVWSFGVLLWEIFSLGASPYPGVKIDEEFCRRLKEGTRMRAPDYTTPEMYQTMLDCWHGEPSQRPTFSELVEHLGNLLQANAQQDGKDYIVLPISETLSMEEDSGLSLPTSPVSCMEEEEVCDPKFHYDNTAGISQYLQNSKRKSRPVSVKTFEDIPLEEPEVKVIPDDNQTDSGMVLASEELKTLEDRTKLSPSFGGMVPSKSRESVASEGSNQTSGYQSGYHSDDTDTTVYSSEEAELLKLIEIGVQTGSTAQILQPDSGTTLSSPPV
Metric Name: inhibition at 0.1 µM

1. CNC(=O)c1cc2cc(NCc3cc(NC(=O)c4ccc(CN5CC[C@H](N(C)C)C5)c(C(F)(F)F)c4)ccc3C)cnc2[nH]1 = ≥ 50%
2. Cc1ccc(NC(=O)c2ccc(CN3CC[C@H](N(C)C)C3)c(C(F)(F)F)c2)cc1CNc1cnc2[nH]c(C(=O)O)cc2c1 = ≥ 50%
3. CC(=O)c1cc2cc(NCc3cc(NC(=O)c4ccc(CN5CCN(C)CC5)cc4)ccc3C)cnc2[nH]1 = ≥ 50%
4. CC(=O)c1cc2cc(NCc3cc(NS(=O)(=O)c4cccc(C(F)(F)F)c4)ccc3C)cnc2[nH]1 = < 50%
5. Cc1ccc(NC(=O)c2ccc(CN3CCN(C)CC3)c(C(F)(F)F)c2)cc1CNc1cnc2[nH]c(C(=O)O)cc2c1 = ≥ 50%

Given the molecule CC(=O)c1cc2cc(NCc3cccc(NC(=O)c4cncc(C(F)(F)F)c4)c3)cnc2[nH]1 , write its reported inhibition at 0.1 µM.
≥ 50%

Given the molecule CC(=O)c1cc2cc(NC(=O)c3cc(NC(=O)c4ccc(CN5CCN(C)CC5)c(C(F)(F)F)c4)ccc3C)cnc2[nH]1 , write its reported inhibition at 0.1 µM.
≥ 50%

---

biological target: EGFR (ErbB1) (Homo sapiens); construct: purchased Invitrogen; experiment: In vitro kinase assay (Z'-LYTE), EGFR (ErbB1); type: biochemical; details: read-out: % of inhibition of the kinase compared to the control
Sequence (P00533 25-1210): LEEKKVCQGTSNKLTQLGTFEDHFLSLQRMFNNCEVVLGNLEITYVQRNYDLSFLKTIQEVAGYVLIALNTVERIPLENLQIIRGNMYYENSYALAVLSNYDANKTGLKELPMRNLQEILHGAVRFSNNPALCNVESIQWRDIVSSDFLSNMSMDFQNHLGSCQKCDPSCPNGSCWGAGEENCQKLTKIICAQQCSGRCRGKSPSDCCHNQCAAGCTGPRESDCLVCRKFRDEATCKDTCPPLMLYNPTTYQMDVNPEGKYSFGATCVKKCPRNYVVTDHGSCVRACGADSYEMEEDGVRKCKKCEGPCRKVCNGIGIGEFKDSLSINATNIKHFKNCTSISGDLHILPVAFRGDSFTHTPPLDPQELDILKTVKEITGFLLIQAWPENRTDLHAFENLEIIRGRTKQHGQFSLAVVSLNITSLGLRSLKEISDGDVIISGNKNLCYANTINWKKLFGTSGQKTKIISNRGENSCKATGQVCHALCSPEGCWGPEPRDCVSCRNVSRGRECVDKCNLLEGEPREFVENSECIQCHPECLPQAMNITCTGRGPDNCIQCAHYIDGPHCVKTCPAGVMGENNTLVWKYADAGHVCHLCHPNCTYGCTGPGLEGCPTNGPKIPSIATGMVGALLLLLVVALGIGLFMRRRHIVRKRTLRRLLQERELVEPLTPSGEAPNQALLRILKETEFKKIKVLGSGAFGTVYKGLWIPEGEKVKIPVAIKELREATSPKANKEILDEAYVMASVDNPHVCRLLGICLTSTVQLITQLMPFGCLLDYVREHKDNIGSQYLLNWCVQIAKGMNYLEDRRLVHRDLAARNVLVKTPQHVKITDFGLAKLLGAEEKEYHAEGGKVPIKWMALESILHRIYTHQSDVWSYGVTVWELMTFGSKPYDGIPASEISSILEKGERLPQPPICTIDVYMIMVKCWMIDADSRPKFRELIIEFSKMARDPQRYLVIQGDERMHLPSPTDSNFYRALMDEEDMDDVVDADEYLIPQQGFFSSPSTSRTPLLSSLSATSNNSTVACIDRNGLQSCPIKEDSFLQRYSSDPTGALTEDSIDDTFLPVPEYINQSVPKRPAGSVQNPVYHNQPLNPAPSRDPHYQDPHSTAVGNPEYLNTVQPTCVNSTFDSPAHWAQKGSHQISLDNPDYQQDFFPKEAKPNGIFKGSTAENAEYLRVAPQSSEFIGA
Metric Name: inhibition at 0.1 µM

1. Cc1ccc(NC(=O)c2ccc(CN3CCN(C)CC3)c(C(F)(F)F)c2)cc1C(=O)Nc1cnc2[nH]c(C(=O)O)cc2c1 = ≥ 50%
2. CC(=O)c1cc2cc(NCc3cc(NC(=O)c4ccc5[nH]ccc5c4)ccc3C)cnc2[nH]1 = < 50%
3. CC(=O)c1cc2cc(NCc3cccc(NC(=O)c4ccc(CN5CC[C@H](N(C)C)C5)c(C(F)(F)F)c4)c3)cnc2[nH]1 = ≥ 50%
4. Cc1cn(-c2cc(C(=O)Nc3ccc(C)c(CNc4cnc5[nH]c(C(=O)O)cc5c4)c3)cc(C(F)(F)F)c2)cn1 = ≥ 50%

Given the molecule CC(=O)c1cc2cc(NCc3cc(NC(=O)c4cccc(C(F)(F)F)c4)ccc3C)cnc2[nH]1 , write its reported inhibition at 0.1 µM.
≥ 50%

Given the molecule CC(=O)c1cc2cc(NC(=O)c3cccc(CNC(=O)c4ccc(CN5CCN(C)CC5)c(C(F)(F)F)c4)c3)cnc2[nH]1 , write its reported inhibition at 0.1 µM.
< 50%

Given the molecule CNC(=O)c1cc2cc(NCc3cc(NC(=O)c4ccc(CN5CCC(N(C)C)C5)c(C(F)(F)F)c4)ccc3C)cnc2[nH]1 (stereo not shown) , write its reported inhibition at 0.1 µM.
≥ 50%

---

Reported inhibition at 0.1 µM values follow for various molecules
biological target: PDGFRA (PDGFR alpha) (Homo sapiens, UniProt P16234); construct: purchased Invitrogen; test: In vitro kinase assay (Z'-LYTE), PDGFRA; type: biochemical; settings: read-out: % of inhibition of the kinase compared to the control
Sequence (P16234 24-1089): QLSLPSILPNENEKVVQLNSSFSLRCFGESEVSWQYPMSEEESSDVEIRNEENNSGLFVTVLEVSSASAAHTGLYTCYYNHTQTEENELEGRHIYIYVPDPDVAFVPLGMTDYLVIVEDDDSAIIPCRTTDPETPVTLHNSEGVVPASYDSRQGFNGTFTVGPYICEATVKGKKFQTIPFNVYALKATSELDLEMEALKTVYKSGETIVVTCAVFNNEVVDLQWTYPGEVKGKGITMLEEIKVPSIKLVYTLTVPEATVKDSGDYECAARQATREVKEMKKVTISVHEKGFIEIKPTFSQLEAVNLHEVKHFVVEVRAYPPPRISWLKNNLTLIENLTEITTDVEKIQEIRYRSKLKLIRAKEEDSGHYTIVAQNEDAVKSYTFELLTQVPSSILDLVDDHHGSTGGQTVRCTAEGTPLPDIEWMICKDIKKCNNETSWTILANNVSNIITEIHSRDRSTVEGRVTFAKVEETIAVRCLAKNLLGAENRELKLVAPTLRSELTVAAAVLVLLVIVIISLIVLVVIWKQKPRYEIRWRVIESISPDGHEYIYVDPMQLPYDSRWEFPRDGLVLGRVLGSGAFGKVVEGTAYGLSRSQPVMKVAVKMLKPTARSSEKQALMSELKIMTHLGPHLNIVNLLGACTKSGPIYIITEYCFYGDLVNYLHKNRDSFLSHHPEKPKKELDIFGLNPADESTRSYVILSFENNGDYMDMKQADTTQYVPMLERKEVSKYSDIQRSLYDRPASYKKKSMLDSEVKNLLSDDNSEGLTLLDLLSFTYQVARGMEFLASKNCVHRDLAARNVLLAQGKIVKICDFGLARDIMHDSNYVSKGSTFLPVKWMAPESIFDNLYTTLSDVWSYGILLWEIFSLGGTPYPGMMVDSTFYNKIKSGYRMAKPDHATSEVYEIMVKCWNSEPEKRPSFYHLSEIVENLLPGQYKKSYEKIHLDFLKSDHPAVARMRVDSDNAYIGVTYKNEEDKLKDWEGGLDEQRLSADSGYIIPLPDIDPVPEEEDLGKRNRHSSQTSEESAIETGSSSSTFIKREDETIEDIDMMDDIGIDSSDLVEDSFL

Worked examples, 5 molecules total:
1) CC(=O)c1cc2cc(NCc3cc(NC(=O)c4ccc(CN5CCN(C)CC5)cc4)ccc3C)cnc2[nH]1 = ≥ 50%
2) CC(=O)c1cc2cc(NCc3cc(NC(=O)c4ccc(Cl)c(C(F)(F)F)c4)ccc3C)cnc2[nH]1 = < 50%
3) CC(=O)c1cc2cc(NCc3cc(NC(=O)c4ccc(C(F)(F)F)nc4)ccc3C)cnc2[nH]1 = ≥ 50%
4) CC(=O)c1cc2cc(NCc3cc(NC(=O)c4ccc5[nH]nnc5c4)ccc3C)cnc2[nH]1 = ≥ 50%
5) CC(=O)c1cc2cc(NCc3cc(NC(=O)c4ccc(C)c(C(F)(F)F)c4)ccc3C)cnc2[nH]1 = ≥ 50%

Given the molecule CC(=O)c1cc2cc(NC(=O)c3cccc(CNC(=S)c4cccc(C(F)(F)F)c4)c3)cnc2[nH]1 , write its reported inhibition at 0.1 µM.
< 50%

Given the molecule CC(=O)c1cc2cc(NCc3cc(NS(=O)(=O)c4cccc(C(F)(F)F)c4)ccc3C)cnc2[nH]1 , write its reported inhibition at 0.1 µM.
< 50%

Given the molecule CC(=O)c1cc2cc(NCc3cc(NC(=O)c4ccncn4)ccc3C)cnc2[nH]1 , write its reported inhibition at 0.1 µM.
< 50%

Given the molecule Cc1ccc(NC(=O)c2ccc(CN3CCC(N(C)C)C3)c(C(F)(F)F)c2)cc1CNc1cnc2[nH]c(C(=O)O)cc2c1 (stereo not drawn) , write its reported inhibition at 0.1 µM.
≥ 50%

Given the molecule CC(=O)c1cc2cc(NC(=O)c3cccc(CNC(=O)c4ccc(CN5CCN(C)CC5)c(C(F)(F)F)c4)c3)cnc2[nH]1 , write its reported inhibition at 0.1 µM.
< 50%

Given the molecule CC(=O)c1cc2cc(NCc3cc(NC(=O)Cc4cccc(C(F)(F)F)c4)ccc3C)cnc2[nH]1 , write its reported inhibition at 0.1 µM.
≥ 50%

Given the molecule CC(=O)c1cc2cc(NCc3cc(NC(=O)c4ccc5[nH]ccc5c4)ccc3C)cnc2[nH]1 , write its reported inhibition at 0.1 µM.
≥ 50%

Given the molecule CC(=O)c1cc2cc(NCc3cc(NC(=O)C4CC4)ccc3C)cnc2[nH]1 , write its reported inhibition at 0.1 µM.
< 50%

Given the molecule CC(=O)c1cc2cc(NCc3cc(NC(=O)Nc4cccc(C(F)(F)F)c4)ccc3C)cnc2[nH]1 , write its reported inhibition at 0.1 µM.
≥ 50%

Given the molecule Cc1cn(-c2cc(C(=O)Nc3ccc(C)c(CNc4cnc5[nH]c(C(=O)O)cc5c4)c3)cc(C(F)(F)F)c2)cn1 , write its reported inhibition at 0.1 µM.
≥ 50%

Given the molecule CC(=O)c1cc2cc(NCc3cc(NC(=S)Nc4cccc(C(F)(F)F)c4)ccc3C)cnc2[nH]1 , write its reported inhibition at 0.1 µM.
< 50%

Given the molecule CC(=O)c1cc2cc(NC(=O)c3cc(NC(=O)c4ccc(CN5CCN(C)CC5)c(C(F)(F)F)c4)ccc3C)cnc2[nH]1 , write its reported inhibition at 0.1 µM.
≥ 50%

Given the molecule CC(=O)c1cc2cc(NCc3cc(NC(=O)c4cncc(C)c4)ccc3C)cnc2[nH]1 , write its reported inhibition at 0.1 µM.
≥ 50%

Given the molecule CC(=O)c1cc2cc(NCc3cc(NC(=O)c4ccc(CN5CCN(C)CC5)c(C(F)(F)F)c4)ccc3C)cnc2[nH]1 , write its reported inhibition at 0.1 µM.
≥ 50%

Given the molecule Cc1ccc(NC(=O)c2ccc(CN3CCN(C)CC3)c(C(F)(F)F)c2)cc1CNc1cnc2[nH]c(C(=O)O)cc2c1 , write its reported inhibition at 0.1 µM.
≥ 50%

Given the molecule CC(=O)c1cc2cc(NCc3cc(NC(=O)c4cc[nH]c4)ccc3C)cnc2[nH]1 , write its reported inhibition at 0.1 µM.
≥ 50%

Given the molecule CC(=O)c1cc2cc(NC(=O)c3cc(NC(=O)c4ccc(CN5CCC(N(C)C)C5)c(C(F)(F)F)c4)ccc3C)cnc2[nH]1 (stereo not drawn) , write its reported inhibition at 0.1 µM.
≥ 50%

Given the molecule CNC(=O)c1cc2cc(NCc3cc(NC(=O)c4ccc(CN5CCC(N(C)C)C5)c(C(F)(F)F)c4)ccc3C)cnc2[nH]1 (stereo not drawn) , write its reported inhibition at 0.1 µM.
≥ 50%

Given the molecule CC(=O)c1cc2cc(NCc3cc(NC(=O)c4ccc(CN5CCC(N(C)C)C5)c(C(F)(F)F)c4)ccc3C)cnc2[nH]1 (stereo not drawn) , write its reported inhibition at 0.1 µM.
≥ 50%

Given the molecule CC(=O)c1cc2cc(NC(=O)c3cc(NC(=O)Nc4cccc(C(F)(F)F)c4)ccc3C)cnc2[nH]1 , write its reported inhibition at 0.1 µM.
< 50%

Given the molecule Cc1ccc(NC(=O)c2cncc(C(F)(F)F)c2)cc1C(=S)Nc1cnc2[nH]c(C(=O)O)cc2c1 , write its reported inhibition at 0.1 µM.
≥ 50%

Given the molecule CC(=O)c1cc2cc(NCc3cc(NC(=O)c4ccnc(C)c4)ccc3C)cnc2[nH]1 , write its reported inhibition at 0.1 µM.
≥ 50%

---

molecular target: FGFR2 (Homo sapiens, UniProt P21802); construct: purchased Invitrogen; test: In vitro kinase assay (Z'-LYTE), FGFR2; assay type: biochemical; details: read-out: % of inhibition of the kinase compared to the control
Sequence (P21802 22-821): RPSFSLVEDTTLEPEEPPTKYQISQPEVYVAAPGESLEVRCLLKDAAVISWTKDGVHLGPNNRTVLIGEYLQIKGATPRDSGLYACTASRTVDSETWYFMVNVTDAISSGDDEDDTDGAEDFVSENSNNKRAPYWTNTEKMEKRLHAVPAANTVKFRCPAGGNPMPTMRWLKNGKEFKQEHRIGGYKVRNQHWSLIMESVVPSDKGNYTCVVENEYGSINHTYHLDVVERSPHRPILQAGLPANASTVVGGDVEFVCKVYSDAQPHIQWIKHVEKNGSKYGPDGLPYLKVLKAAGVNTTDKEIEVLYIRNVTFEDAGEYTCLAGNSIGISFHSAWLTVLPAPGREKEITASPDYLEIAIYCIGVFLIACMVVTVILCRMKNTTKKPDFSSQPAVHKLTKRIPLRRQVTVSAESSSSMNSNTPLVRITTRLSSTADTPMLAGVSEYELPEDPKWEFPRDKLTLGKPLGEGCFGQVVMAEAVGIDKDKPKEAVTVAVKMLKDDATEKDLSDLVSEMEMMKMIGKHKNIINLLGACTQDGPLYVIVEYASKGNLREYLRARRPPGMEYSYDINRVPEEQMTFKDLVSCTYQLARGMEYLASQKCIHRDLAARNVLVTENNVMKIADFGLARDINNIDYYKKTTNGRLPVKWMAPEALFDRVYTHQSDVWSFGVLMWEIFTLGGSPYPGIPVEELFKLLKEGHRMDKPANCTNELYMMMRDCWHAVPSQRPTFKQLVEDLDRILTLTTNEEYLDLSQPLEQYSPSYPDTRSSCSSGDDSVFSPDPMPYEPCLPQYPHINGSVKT
Reported inhibition at 0.1 µM values follow for various molecules

Worked examples, 3 molecules total:
1) CC(=O)c1cc2cc(NCc3cc(NC(=O)c4ccnc(C(F)(F)F)c4)ccc3C)cnc2[nH]1 = < 50%
2) CC(=O)c1cc2cc(NCc3cc(NC(=O)c4ccc(CN5CC[C@H](N(C)C)C5)c(C(F)(F)F)c4)ccc3F)cnc2[nH]1 = ≥ 50%
3) CC(=O)c1cc2cc(NC(=O)c3cc(NC(=O)c4ccc(CN5CCN(C)CC5)c(C(F)(F)F)c4)ccc3C)cnc2[nH]1 = ≥ 50%

Given the molecule CC(=O)c1cc2cc(NCc3cc(NC(=O)c4ccc(CN5CC[C@H](N(C)C)C5)c(C(F)(F)F)c4)ccc3C)cnc2[nH]1 , write its reported inhibition at 0.1 µM.
≥ 50%

Given the molecule CC(=O)c1cc2cc(NCc3cc(NS(=O)(=O)c4cccc(C(F)(F)F)c4)ccc3C)cnc2[nH]1 , write its reported inhibition at 0.1 µM.
< 50%

Given the molecule CNC(=O)c1cc2cc(NCc3cc(NC(=O)c4ccc(CN5CCN(C)CC5)cc4)ccc3C)cnc2[nH]1 , write its reported inhibition at 0.1 µM.
< 50%

Given the molecule CNC(=O)c1cc2cc(NCc3cc(NC(=O)c4ccc(CN5CCN(C)CC5)c(C(F)(F)F)c4)ccc3C)cnc2[nH]1 , write its reported inhibition at 0.1 µM.
≥ 50%

Given the molecule CNC(=O)c1cc2cc(NCc3cc(NC(=O)c4ccc(CN5CC[C@H](N(C)C)C5)c(C(F)(F)F)c4)ccc3C)cnc2[nH]1 , write its reported inhibition at 0.1 µM.
≥ 50%

Given the molecule Cc1cn(-c2cc(C(=O)Nc3ccc(C)c(CNc4cnc5[nH]c(C(=O)O)cc5c4)c3)cc(C(F)(F)F)c2)cn1 , write its reported inhibition at 0.1 µM.
< 50%
